Provenance of the data: PubChem BioAssay (NCI)

System: MCF7 breast
PROCEDURE_TEXT: NCI-60 one-dose screen, 48 h (100 = growth as untreated, 0 = no growth, -100 = all killed)
MEASUREMENT_SETUP: 10 µM unless noted
About 83,000 compounds went through this panel and 20% of them were active in at least one assay; those are over-represented in the sample as a whole.
Listing of recorded growth by entry.
ENDPOINT_LABEL: growth (%)

>>> reported_measurement("CCC(=O)c1c(C)[nH]c(C)c1C")
61.1
>>> reported_measurement("CC1(C)C(=O)/C(=C\\c2ccco2)C[C@]2(C)[C@H]3CC[C@@H]4[C@@H](C(=O)/C=C/c5ccco5)CC[C@@]4(C)[C@]3(C)CC[C@@H]12")
62
>>> reported_measurement("C=C(C)[C@@H]1CC[C@]2(C(=O)OC)CC[C@]3(C)[C@H](CC[C@@H]4[C@@](C)(CC/C(N)=N/O)[C@H](C(=C)C)CC[C@]43C)[C@@H]12")
88.3
>>> reported_measurement("Fc1ccc(Nc2nc(Nc3ccc(-c4nc5ccccc5[nH]4)cc3)nc(N3CCCC3)n2)cc1")
32.7
>>> reported_measurement("COC(=O)CCCCCn1c2ccccc2c2c3c(c4c5ccccc5[nH]c4c21)C(=O)N(O)C3=O")
13.1
>>> reported_measurement("COc1ccc(-c2cc(-c3cccs3)n(N=O)c(=O)c2C#N)cc1")
95.8
>>> reported_measurement("CC1(C)C(=O)/C(=C\\c2cccnc2)C[C@]2(C)[C@H]3CC[C@@H]4[C@@H](C(=O)/C=C/c5ccncc5)CC[C@@]4(C)[C@]3(C)CC[C@@H]12")
26.2
>>> reported_measurement("O=C1/C(=C\\C(Cl)=C/c2ccc([N+](=O)[O-])cc2)SC(=S)N1CCc1ccc(O)cc1")
-73.4
>>> reported_measurement("CC1c2ccccc2N(S(=O)(=O)c2ccccc2)C1C (stereo not drawn)")
78.5
>>> reported_measurement("COc1ccc2c(c1)c(-c1nc(-c3cn(C)c4ncccc34)cs1)cn2CCCN1CCCCC1")
34
>>> reported_measurement("CCOc1ccc(NC(=O)c2ccccc2-c2ccccc2C(=O)O)cc1")
97.4
>>> reported_measurement("O=c1[nH]c2c3ccncc3cc(-c3cccc(Cl)c3)c2c2cnccc12")
22.7
>>> reported_measurement("Cc1ccc(S(=O)(=O)Nc2ccc(-c3cc(-c4cccc(F)c4)c(C#N)c(=O)[nH]3)cc2)cc1")
16.9
>>> reported_measurement("C=C1C(=O)O[C@H]2[C@H]1CC/C(Cn1cc(-c3ccc(F)cc3)nn1)=C\\CC[C@@]1(C)O[C@@H]21")
-55.6
>>> reported_measurement("Nc1c2c(nc3ccc(Br)cc13)CC(c1ccccc1)CC2=O (stereo not drawn)")
21.1
>>> reported_measurement("c1ccc2[nH]c(-c3ccc(Nc4nc(N5CCCCC5)nc(N5CCOCC5)n4)cc3)nc2c1")
3.49
>>> reported_measurement("Cc1cccc(C)c1NC(=O)CSC(=S)N1CCCCC1")
97.8
>>> reported_measurement("Cc1cc(N2CCCCC2)nc(N(CCCNc2ccnc3cc(Cl)ccc23)Cc2ccco2)n1")
11.7

###

Tested on: NCI-H226 lung
PROCEDURE_TEXT: NCI-60 one-dose screen, 48 h
MEASUREMENT_SETUP: 10 µM unless noted
Compounds without any hit were thinned out: in the full panel of roughly 83,000, 20% have a hit. Active and inactive are the calls of the source. The calls were made as follows: active = growth percent below 10; inactive = the rest.
Outcomes: 1 = active, 0 = inactive

>>> label_class("COc1ccc(OCC(CO)N2CCN(c3ccccc3)CC2)cc1 (centres undefined)")
0
>>> label_class("Cc1cc(N2CCCCC2)nc(N(CCNc2ccnc3cc(Cl)ccc23)Cc2ccco2)n1")
0
>>> label_class("CCCCN1CCCCn2c1nc1c2c(=O)n(C)c(=O)n1C")
0
>>> label_class("Nc1ncnc2nc(Br)[nH]c12")
0
>>> label_class("C/C(=N/NC(N)=S)C(=O)O")
0
>>> label_class("O=C1/C(=C\\C(Cl)=C/c2ccc([N+](=O)[O-])cc2)SC(=S)N1CCc1ccc(O)cc1")
1
>>> label_class("COc1cc2c3c(c4c5ccccc5[nH]c4c2c(OC)c1OC)C(=O)N(O)C3=O")
0
>>> label_class("C=C(C)[C@@H]1CC[C@]2(c3nnc(-c4ccncc4)o3)CC[C@]3(C)[C@H](CC[C@@H]4[C@@]5(C)CCC(=O)NC(C)(C)[C@@H]5CC[C@]43C)[C@@H]12")
0
>>> label_class("CN1CCN(c2ccc3nc(-c4[nH]ncc4Nc4ncnc5c4OCCCN5)[nH]c3c2)CC1")
1
>>> label_class("COc1cc(-c2cc(-c3nc4ccc(F)cc4[nH]3)[nH]n2)cc(OC)c1OC")
1
>>> label_class("O=C(CCCCCn1c2ccccc2c2c3c(c4c5ccccc5[nH]c4c21)C(=O)N(O)C3=O)N1CCOCC1")
0
>>> label_class("COc1ccc(C2NC(=O)Nc3ccccc32)c(OC)c1 (centres undefined)")
0
>>> label_class("C/C(=C(/c1ccccc1)c1ccc(N2C(=O)c3cccc4c(NCc5ccccc5)ccc(c34)C2=O)cc1)c1ccccc1")
0
>>> label_class("CC[C@H](CC[C@@H](C)[C@H]1CC[C@H]2[C@@H]3/C(=C/c4cccnc4)C(=O)C4=CC(=O)CC[C@]4(C)[C@H]3CC[C@]12C)C(C)C")
0
>>> label_class("CC(=O)O[C@H]1CC[C@@]2(C)C(=CC[C@@H]3[C@@H]2CC[C@]2(C)C(=O)N(O)C(=O)C[C@@H]32)C1")
0
>>> label_class("COc1ccc(NC(=O)c2ccoc2COc2ccccc2)cc1")
0
>>> label_class("N#C/C(=C\\c1ccc(-c2ccc(Br)cc2)o1)c1nc(-c2ccco2)cs1")
0
>>> label_class("O=C1c2cccc3cccc(c23)C(=O)N1CC#Cc1ccc2c3c(cccc13)C(=O)N(CCO)C2=O")
0
>>> label_class("Cc1cc(N2CCN(C)CC2)nc(N(CCNc2ccnc3cc(Cl)ccc23)Cc2ccco2)n1")
0
